Measured MLR (CD4 T cell proliferation) repeat 1, % inhibition accompanies every entry in the list below.
target: chimeric BTLA of humanised-BTLA mice (human extracellular region, murine transmembrane and signaling … (human; mouse, UniProt Q7TSA3 184-306, limits assumed); assay: cell-based or functional assay
Sequence (Q7TSA3 other isoform, or with tags, fused parts or gaps mutant limits assumed): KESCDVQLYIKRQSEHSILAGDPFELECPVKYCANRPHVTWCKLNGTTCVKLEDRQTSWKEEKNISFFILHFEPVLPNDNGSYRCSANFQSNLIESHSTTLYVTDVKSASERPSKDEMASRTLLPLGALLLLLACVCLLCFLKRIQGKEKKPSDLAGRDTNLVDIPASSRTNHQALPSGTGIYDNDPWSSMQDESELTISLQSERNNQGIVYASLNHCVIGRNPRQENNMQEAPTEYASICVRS
Provide the reading as a plain figure in %.

Study these solved cases before continuing.
[[record]]
binder = "831 (antibody, V domains shown) VH: DVQLQESGPDLVKPSQSLSVTCTVTGYSITSGYSWHWIRQFPGNKLEWMGYIHYSGSTNYNPSLKSRISITRDTSKNQFFLQLSSVTTEDTATYYCASGPHRYDGVWFAYWGQGTLVTVSS VL: EIVLTQSPTTMAASPGEKITITCSASSSISSNYLHWYQQKPGFSPKLLIYRTSNLASGVPARFSGSGSGTSYSLTIGTMEAEDVATYYCQQGTNIPLTFGAGTKLEIK"
test_value = 25

[[record]]
binder = "15C6 (antibody, IgG1, V domains shown) VH: QVQLQQSGPELVKPGASVKISCKASGYAFSSSWMNWVKQRPGKGLEWIGRIYPGDGDTNYNGKFKGKATLTADKSSSTAYMQLSSLTSEDSAVYFCARRGYGYLAYWGQGTLVTVSA VL: DIVMTQSHKFMSTSVGDRVSITCKASQDVSTAVAWYQQKPGQSPKLLIYSASYRYTGVPDRFTGSGSGTDFTFTISSVQAEDLAVYYCQQHYSTPYTFGGGTKLEIK"
test_value = 19

[[record]]
binder = "4B1 (antibody, IgG1, V domains shown) VH: QVQLQQSGAELARPGASVRLSCKASGYTFTSYGLIWLKQRTGQGLEWIGEIYPRSGSTYYNEWFKGKATLTADKSSNTAFMELRSLTSEDSAVYFCARRRGTGDGFDYWGQGTILTVSS VL: DIQMTQTTSSLSASLGDRVTISCSASQGISNYLNWYQQKPDGTVKLLIYYTSSLHSGVPSRFSGSGSGTDYSLTISNLEPEDIATYYCQQYIELPFTFGSGTKLEIK"
test_value = 33

[[record]]
binder = "24H7 (antibody, IgG1, V domains shown) VH: QVQLQQSGAELVRPGASVTLSCKASGYTFTDYEIHWVKQTLVHGLEWIGPIDPDTGNTAYNQNLKGKAILTADKSSSTAYMELRSLTSEDSAVYYCTRGGYDSDWGFAYWGQGTLVTVSA VL: DIVMTQATPSVPVTPGESVSISCRSSKSLLHSNGNTFLFWFLQRPGQSPQLLIYRMSDLASGVPDRFSGSGSGTAFTLRISRVEAEDVGIYYCMQHLEYPFTFGSGTKLEIK"
test_value = 23

[[record]]
binder = "12F11 (antibody, IgG1, V domains shown) VH: EVQLQQSGPELVKPGASVKISCKASGYTFTDYYMNWVKQSHGKSLEWIGDINPNNGGTSYNQKFKGKATLTVDKSSSTAYMELRSLTSEDSAVYYCARWRQLRSDYWGQGTTLTVSS VL: DIQMTQSPASQSASLGESVTITCLASQTIGTWLAWYQQKPGKSPQLLIYAATSLADGVPSRFSGSGSGTKFSFKISSLQAEDFVSYYCQQLYSTPLTFGAGTKLELK"
test_value = 28


// query Tell me the measured MLR (CD4 T cell proliferation) repeat 1, % inhibition of 8C4 (antibody, IgG1, V domains shown) VH: DVQLQESGPGMVKPSQSLSLTCTVTGYSITSGYDWHWIRHFPGNKLEWMGYISYSGSTNYNPSLKSRISITHDTSKNHFFLKLNSVTTEDTATYYCARGTPVVAEDYFDYWGQGTTLTVSS VL: QAVVTQESALSTSPGETVTLTCRSSTGAVTTSNYANWVQEKPDHLFTGLIGATNNRAPGVPARFSGSLIGDKAALTITGAQTEDEAIYFCALWYSNHLVFGGGTKLTVLG , please.
// result 42

// query If you can, please state the reported MLR (CD4 T cell proliferation) repeat 1, % inhibition value of 2.8.6 (antibody, IgG1, V domains shown) VH: QVQLKESGPGLVAPSQSLSITCTVSGFSLTTYGVHWVRQSPGKGLEWLGVMWPGGRTSYNPAPMSRLSISKDNSKSQVFLKMNSLQTDDTAMYYCVRGDYEYDYYAMDYWGQGTSVTVSS VL: QIVLSQSPAILSASPGEKVTMTCRASSSVSYMHWYQQKPGSSPKPWIYATSNLASGVPARFSGSGSGTSYSLTISRMEAEDAATYYCHQWSSNPYTFGGGTKLEIK .
// result 30

// query Need MLR (CD4 T cell proliferation) repeat 1, % inhibition, item 4H4 (antibody, IgG1, V domains shown) VH: QVQLQQSGAELARPGASVKLSCKASGYTFTSYGISWVKQRTGQGLEWIGEIYPRSGNTYYNEKFKGKATLTADKSSSTAYMELRSLTSEDSAVYFCARRRGAGDGFDYWGQGTTLTVSS VL: DIQMTQTTSSLSASLGDRVTISCSASQGISNYLNWYQQKPDGTVKLLIYYTSSLHSGVPSRFSGSGSGTDYSLTISNLEPEDIATYYCQQYSKLPFTFGSGTKLEIK
// result 10

// query Tell me the measured MLR (CD4 T cell proliferation) repeat 1, % inhibition of 14D4 (antibody, IgG1, V domains shown) VH: QVQLQQPGAELVKPRASVKLSCKASGYTFTSYWMHWVKQRPGQGLEWIGMIHPNNGIPNYNEKFKSKATLTVDKSSTTAYMQLSSLTSEDSAVYHCAREGYYGSEGYFDVWGTGTTVTVSS VL: QIVLTQSPAIMSASPGEKVTMTCSASSSISYIHWYQQKPGTSPKRWIYDTSKLASGVPARFSGSGSGTSYSLTISSMEAEDAATYYCHQRSTYPYTFGGGTKLEIK , please.
// result 39

// query Sample 8B4 (antibody, IgG1, V domains shown) VH: QVQLQQSGAELARPGASVKLPCKASGYTFTSYGISWVKQRTGQGLEWIGEIYPRSGTTYYNEKFKGKATLTADKSSSTAYMELRSLTSEDSAVYFCARRISSGSGVDYWGQGTTLTVSS VL: DIQMTQTTSSLSASLGDRVTISCSASQGISNYLNWYQQKPDGTVKLLIYYTSSLHSGVPSRFSGSGSGTDYSLTISNLEPEDIATYYCQQYSELPWTFGGGTKLEIK — what was its MLR (CD4 T cell proliferation) repeat 1, % inhibition?
// result 33
